Target: GCN2 (Homo sapiens)
Sequence (Q9P2K8 whole entry): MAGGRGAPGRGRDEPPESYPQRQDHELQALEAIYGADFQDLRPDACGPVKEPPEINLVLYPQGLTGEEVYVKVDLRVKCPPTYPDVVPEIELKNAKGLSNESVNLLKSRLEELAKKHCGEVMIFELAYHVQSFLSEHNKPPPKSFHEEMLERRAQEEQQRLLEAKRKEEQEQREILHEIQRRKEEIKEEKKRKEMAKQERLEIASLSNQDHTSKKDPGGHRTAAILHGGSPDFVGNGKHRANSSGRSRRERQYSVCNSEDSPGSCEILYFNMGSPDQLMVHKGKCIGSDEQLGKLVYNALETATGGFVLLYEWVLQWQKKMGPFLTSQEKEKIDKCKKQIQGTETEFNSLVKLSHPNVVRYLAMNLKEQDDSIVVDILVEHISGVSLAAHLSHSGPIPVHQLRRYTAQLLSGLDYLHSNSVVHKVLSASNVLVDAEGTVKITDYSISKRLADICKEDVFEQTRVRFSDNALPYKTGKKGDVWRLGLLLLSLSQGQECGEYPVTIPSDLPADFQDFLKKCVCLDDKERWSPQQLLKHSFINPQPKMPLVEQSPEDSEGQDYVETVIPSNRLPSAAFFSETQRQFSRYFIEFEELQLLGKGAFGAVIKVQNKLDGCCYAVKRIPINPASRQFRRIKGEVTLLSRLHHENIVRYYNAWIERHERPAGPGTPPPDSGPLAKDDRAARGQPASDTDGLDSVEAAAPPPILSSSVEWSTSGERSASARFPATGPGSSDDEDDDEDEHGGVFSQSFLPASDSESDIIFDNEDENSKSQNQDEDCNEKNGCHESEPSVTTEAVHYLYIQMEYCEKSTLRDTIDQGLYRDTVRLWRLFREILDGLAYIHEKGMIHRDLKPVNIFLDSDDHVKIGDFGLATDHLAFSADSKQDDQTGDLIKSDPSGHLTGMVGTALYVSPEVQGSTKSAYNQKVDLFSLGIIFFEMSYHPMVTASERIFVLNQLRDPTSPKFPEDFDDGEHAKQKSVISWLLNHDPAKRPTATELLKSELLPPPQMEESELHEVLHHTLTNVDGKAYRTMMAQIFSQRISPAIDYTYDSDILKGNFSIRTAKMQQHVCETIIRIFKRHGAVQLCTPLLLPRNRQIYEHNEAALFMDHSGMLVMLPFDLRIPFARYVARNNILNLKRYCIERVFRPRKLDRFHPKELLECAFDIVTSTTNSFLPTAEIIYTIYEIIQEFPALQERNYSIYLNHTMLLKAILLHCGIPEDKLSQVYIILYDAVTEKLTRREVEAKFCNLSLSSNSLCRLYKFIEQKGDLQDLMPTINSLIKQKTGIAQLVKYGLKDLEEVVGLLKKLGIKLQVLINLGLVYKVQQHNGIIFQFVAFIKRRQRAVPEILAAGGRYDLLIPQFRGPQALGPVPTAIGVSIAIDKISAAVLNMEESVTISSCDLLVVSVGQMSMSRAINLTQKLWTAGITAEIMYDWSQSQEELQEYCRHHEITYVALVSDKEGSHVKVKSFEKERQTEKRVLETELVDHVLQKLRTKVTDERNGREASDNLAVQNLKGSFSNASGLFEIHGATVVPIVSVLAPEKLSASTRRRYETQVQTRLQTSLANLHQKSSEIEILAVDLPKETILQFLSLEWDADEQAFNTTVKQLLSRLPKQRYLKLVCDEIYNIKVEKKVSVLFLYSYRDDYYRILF
Assay: Cellular assay of GCN2 activity (phospho-eIF2alpha immunocytochemistry after tryptophanol)
Assay type: cell-based
Set-up: endogenous in cells; host or cells: U2OS
Settings: Human U2OS cells, 2 h compound, 600 μM tryptophanol 30 min
Could you please report measured IC50 for the items listed next?

Record excerpt, results attached:
COMPOUND	IC50
OCCOc1ccc(-n2nnc3cnc(N[C@@H]4CC[C@@H](O)C4)nc32)cc1	1 to 5 µM
COCCn1cc(-c2ccc(-n3nnc4cnc(N[C@@H]5CC[C@@H](C(N)=O)C5)nc43)cc2F)cn1	1 to 5 µM
Cc1ccc2cc(-n3nnc4cnc(N[C@@H]5CC[C@@H](C(N)=O)C5)nc43)ccc2n1	< 1 µM
NC1CC[C@@H](Nc2ncc3nnn(-c4ccc(-c5cnn(CCO)c5)cc4)c3n2)C1 (stereo in doubt)	5 to 10 µM
COCCn1cc(-c2ccc(-n3nnc4cnc(N[C@@H]5CC[C@@H](C(N)=O)C5)nc43)cc2)cn1	< 1 µM
N[C@H]1CC[C@H](Nc2ncc3nnn(-c4ccc(N5CC[C@@H](O)C5)cc4)c3n2)CC1	5 to 10 µM
CCOc1ccc(-n2nnc3cnc(N[C@@H]4CC[C@@H](C(=O)NCC5CCN(C)CC5)C4)nc32)cc1	1 to 5 µM
NC(=O)[C@@H]1CC[C@@H](Nc2ncc3nnn(-c4ccc(-c5cnn(CCO)c5)c(F)c4)c3n2)C1	5 to 10 µM

# batch size: 3; output IC50 per entry
1. Cc1ccc2cc(-n3nnc4cnc(N[C@@H]5CC[C@@H](C(=O)NCCO)C5)nc43)ccc2n1
2. COCCn1cc(-c2ccc(-n3nnc4cnc(N[C@@H]5CC[C@@H](N)C5)nc43)cc2)cn1
3. CCOc1ccc(-n2nnc3cnc(N[C@@H]4CC[C@@H](C(=O)NN)C4)nc32)cc1

OUTPUT:
["< 1 µM", "< 1 µM", "1 to 5 µM"]
